Test system UniProt:Q72874, Ki listed for each of the molecules.
property.label: Ki (nM)

(I) ON=C1N(Cc2ccccc2)[C@H](Cc2ccccc2)[C@H](O)[C@@H](O)[C@@H](Cc2ccccc2)N1Cc1ccccc1
(II) O[C@@H]1[C@@H](O)[C@@H](Cc2ccccc2)N(Cc2ccccc2)C(=NOCc2ccccc2)N(Cc2ccccc2)[C@@H]1Cc1ccccc1
query: Could you tell me which of I and II has the lower Ki reading? # answer = label of selected item
result: I
